Metric: Ki (nM)
Reply with just the number (in nM).

Test item Cc1ccc(N2CCN(CCC3NC(=O)c4ccccc43)CC2)cc1C (stereo not given) ; D(3) dopamine receptor (Homo sapiens); reported Ki was 2680

Test item O=C1NC(CCN2CCN(c3ccccc3)CC2)c2ccccc21 (stereo not given) ; D(3) dopamine receptor (Homo sapiens); reported Ki was 2680

---

pKi: −log10 of the molar value.
Exercise: for every item that follows, state its recorded pKi.

Test item Cc1ccc(N2CCN(CCC3c4ccccc4C(=O)N3C)CC2)cc1C (stereo not drawn) ; D(3) dopamine receptor (Homo sapiens, UniProt P35462); reported pKi was < 5.52

Test item O=C1NC(CCN2CCN(c3ccc(Cl)cc3)CC2)c2ccccc21 (stereo not drawn) ; D(3) dopamine receptor (Homo sapiens, UniProt P35462); reported pKi was < 5.52

Test item Cc1ccc(C2CCN(CCC3NC(=O)c4ccccc43)CC2)cc1C (stereo not drawn) ; D(3) dopamine receptor (Homo sapiens, UniProt P35462); reported pKi was < 5.52
